Where do the numbers come from? From PubChem BioAssay (NCI).

// reported TGI per item
# System: NCI-H460 lung
# PROCEDURE_TEXT: NCI tumour cell line growth inhibition, 48 h
READOUT_NAME: TGI

{"columns": ["COMPOUND", "MEASURED"],
 "data": [
  ["Cc1ccc2c(c1)-c1c3c(nn1C)-c1ccccc1SC3O2 (stereo not drawn)", "> 100 µM"],
  ["c1ccc(C2=NOC3C4CCC(C4)C23)cc1 (stereo not drawn)", "> 100 µM"],
  ["CCOC(=O)c1cc(=O)n(C)c(=O)n1C", "> 100 µM"]
]}

###

# Test system: A549 NSCLC
# PROCEDURE_TEXT: NCI tumour cell line growth inhibition, 48 h
Where a SMILES comes first, the peptide text is derived from it. [ ]: non-standard residue; d: D form. ΔPro = O=C(O)[CH]1C=CCN1

{"columns": ["COMPOUND", "TGI"],
 "data": [
  ["CN1CCN(c2cc3nc(-c4ccc(Cl)cc4)[nH]c3cc2F)CC1", "> 59 µM"],
  ["O=C(Nc1ccncc1)C(=O)c1cn(S(=O)(=O)c2cccc(Cl)c2)c2ccccc12", "> 100 µM"],
  ["CN(C)[C@@H]1C(=O)C(C(=O)NCNc2nc3n[nH]nc3c(=O)[nH]2)=C(O)[C@@]2(O)C(=O)C3=C(O)c4c(O)cccc4[C@@](C)(O)[C@H]3C[C@@H]12", "> 100 µM"],
  ["O=C(O)C1C=CCN1C(=O)C1C=CCN1C(=O)C1C=CCN1 (stereo not given) (H-[ΔPro]-[ΔPro]-[ΔPro]-OH; configuration not given here)", "> 100 µM"],
  ["CC(=O)OCC1OC(n2cccnc2=O)C(OC(C)=O)C1OC(C)=O (stereo not given)", "> 100 µM"]
]}

###

// reported TGI per item
# Test system: MDA-N
# PROCEDURE_TEXT: NCI tumour cell line growth inhibition, 48 h

{"columns": ["COMPOUND", "TEST_SYSTEM", "TGI"],
 "data": [
  ["CC1(C)OCC(CO)(CO)CO1", "MDA-N", "> 100 µM"],
  ["O=C1Nc2ccc(Br)cc2/C1=N/S(=O)(=O)O", "MDA-N", "26.6 µM"],
  ["CC1(C)CC[C@]2(C(=O)O)CC[C@]3(C)C(=CCC4=C5C[C@H](O)[C@H](O)[C@@](C)(CO)[C@@]5(C)CC[C@]43C)[C@@H]2C1", "MDA-N", "> 100 µM"],
  ["COc1ccc(N2C(=O)C(Cl)C2c2cc3cc(Br)ccc3nc2Cl)cc1 (stereo not drawn)", "MDA-N", "15.7 µM"],
  ["CCOP(=O)(C/C=C/Cn1ncc(=O)[nH]c1=O)OCC", "MDA-N", "> 100 µM"],
  ["O=S1SC(=S)C2C=CC=NC21 (stereo not drawn)", "MDA-N", "27.8 µM"],
  ["C/C(O)=C(\\C=N\\C(=S)N=Nc1c(O)[nH]c2ccccc12)C(=O)Nc1ccccc1C", "MDA-N", "> 100 µM"],
  ["C[C@]12CC[C@H](O[C@@H]3O[C@H](CO[C@@H]4O[C@H](CO)[C@@H](O)[C@H](O)[C@H]4O)[C@@H](O)[C@H](O)[C@H]3O)C[C@@H]1CC[C@@H]1[C@@H]2CC[C@]2(C)[C@@H](C3=CC(=O)OC3)CC[C@]12O", "MDA-N", "93.5 µM"]
]}
